Tested on: NCI-H522 lung
Test: NCI tumour cell line growth inhibition, 48 h
test-readout: log10(TGI) (log10 of the value in µM)

# compound, log10(TGI)
data = [
    ("Oc1c(Br)cc(Cl)cc1C(c1cc(Cl)cc(Br)c1O)C(Cl)(Cl)Cl", 0.78),
    ("COc1cc2c(cc1OCCCOc1cc3c(cc1OC)C(=O)N1CCC[C@H]1C(=O)N3)N=C[C@@H]1CCCN1C2=O", 0.80),
    ("CC(=O)O[C@H]([C@H](OC(C)=O)[C@H](C)OC(C)=O)[C@@H](/C=C/[C@H]1CC=CC(=O)O1)OC(C)=O", 1.56),
    ("COC(=O)C1=C(O)C(C(=O)OC)[C@@]2(O)[C@@H](C(=O)OC)[C@H](C)C[C@@H]1[C@@H]2C(=O)OC (stereo not given in full)", 1.71),
    ("N#C[Se]CCN1C(=O)c2ccccc2C1=O", 1.34),
    ("CC(C)(C)n1c(=O)n2c(-c3ccccc3)c(-c3ccccc3)n2c1=O", 1.75),
    ("O=C(Nc1ccc(Cl)cc1Cl)C1C(=O)OC2(CCCCC2)OC1=O", 1.72),
    ("CN1CCN(C(=O)/C=C/c2ccc([N+](=O)[O-])o2)CC1", 0.76),
    ("Cc1cc(C=O)c2c(=O)c3c(O)ccc(/C=C/C(C)C)c3oc2c1", 1.87),
    ("CC(=O)O[C@H]1C[C@@H]2[C@@]3(C)CC[C@H]4C[C@@]4(C)[C@@H]3CC[C@@]2(C)C2=CCC3=C(COC3=O)[C@]21C", 1.92),
    ("C#CCCCCCC(=O)N[C@H]1C=C[C@@H]2/C=C(C)/C=C/[C@@H](C)[C@H]([C@H](C)[C@H](O)[C@@H](C)NC(C)=O)OC(=O)/C=C/C=C(C)\\C=C\\[C@]2(C)C1", 1.15),
    ("O=[N+]([O-])c1ccc(N/N=C\\c2cc(Br)ccc2O)nc1", 0.51),
    ("COc1ccc(-c2c(Nc3ccccn3)nc3c(C4=CCCCC4)c(-c4ccccc4)[nH]n3c2=O)cc1", 1.38),
    ("CO/C(N)=C(\\C#N)N=Cc1ccsc1", 1.90),
    ("O=C(NO)c1ccc(CNc2cccc3nc(C4CC4)n(-c4ccccc4)c(=O)c23)cc1", 0.53),
    ("O=c1c(-c2ccccc2)c(SCCCN2CCCCC2)n(-c2ccccc2)c(=S)n1-c1ccccc1", 1.61),
    ("CCOC(=O)c1c(C)n(-c2ccc(C)cc2)c(=O)c2ccccc2c(=O)c2c(=O)ccc(=O)c1=2", 1.63),
    ("O=C1NC(=NCc2cccs2)O/C1=C\\c1ccc2ncccc2c1", 0.92),
    ("O=C1[C@H](Cc2ccc(O)cc2)N2C(=O)CCN(C(=O)NCc3ccccc3)[C@H]2CN1Cc1cccc2ccccc12", 1.08),
    ("COc1cc(Nc2nc3cc(C)ccc3nc2-c2ccccc2)cc(OC)c1OC", 1.96),
    ("O=[N+]([O-])c1ccc2c3c1[C@@H]1O[C@@H]1c1cccc(c1-3)[C@@H]1O[C@H]21", 0.52),
    ("COc1cc(/C=C/c2cc(/C=C/c3ccc(O)c(OC)c3)n(C(=O)Nc3ccc(C)cc3)n2)ccc1O", -0.04),
]
